# system-under-test: the molecule itself
# procedure-text: SEC-MALS; Superdex 200 gel filtration in 50 mM Tris pH 8.0, 100 mM NaCl, 10 mM EDTA, 1 mM DTT; three-angle light scattering (mini-DAWN TRISTAR) and refractive index detector; self-association (trimer)
property-measured: binding result

human TRAF7 CC (270–379 aa) R371G (domain or fragment, UniProt Q6Q0C0 270-379, looked up, Variant found in patients with developmental disorders; source: E. coli BL21 (DE3), purified (nickel-NTA, Superdex 200 size-exclusion chromatography)) GNQDTYETHLETCRFEGLKEFLQQTDDRFHEMHVALAQKDQEIAFLRSMLGKLSEKIDQLEKSLELKFDVLDENQSKLSEDLMEFRRDASMLNDELSHINAGLNMGILGS; binds
human TRAF7 CC (270–379 aa) Q310L (domain or fragment, UniProt Q6Q0C0 270-379, looked up, source: E. coli BL21 (DE3), purified (nickel-NTA, Superdex 200 size-exclusion chromatography)) GNQDTYETHLETCRFEGLKEFLQQTDDRFHEMHVALAQKDLEIAFLRSMLGKLSEKIDQLEKSLELKFDVLDENQSKLSEDLMEFRRDASMLNDELSHINARLNMGILGS; binds
